B1: NR2F2 (parent)
chain: VAHVESLQEKSQCALEEYVRSQYP

Variants of: B1
testName: protein stability index of a GFP-peptide fusion (GPS, HEK-293T) (PSI 1-6); higher = more stable;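 also: lentivirally expressed fusions sorted by FACS into six bins by GFP to DsRed ratio, PSI derived from sequencing read proportions per bin multiplied by bin number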
settings: c terminus: a fixed tail appended
readoutKind: protein stability index
One number for each entry.

{"variant": "E17N", "protein stability index": 3.08}

Please go through the list and note protein stability index for each variant.
1. A2H
2. S21I
3. K10R
4. E9K
5. V1E
6. S6F
7. Q22Y

Output:
2.98
3.02
4.09
3.11
4.24
2.71
3.34
